# ASSAYED_SYSTEM: Rat brain protein farnesyltransferase (Rattus norvegicus, UniProt Q02293+Q04631)
# Construct: The enzyme is purified according to Reiss, Y., et al., Cell, 62: 81-88 (1990), utilizing steps one through three; from tissue; host or cells: rat brain
# TEST_SUMMARY: In vitro inhibition of protein farnesyltransferase, Amersham scintillation proximity assay with biotin-K Ras B fragment
# Assay type: biochemical
# CONDITIONS_USED: Inhibition of farnesyltransferase; compound at 1 × 10^−6 M (Table 2)
# Experimental: The ability of the compounds of the invention to inhibit protein farnesyltransferase or protein geranylgeranyltransferase can be measured according to the method of Moores, et al., J. Biol. Chem. 266: 14603 (1991) or the method of Vogt, et al., J. Biol. Chem. 270:660-664 (1995). […] In addition, in vitro inhibition of protein farnesyltransferase may be measured by the following procedure. […] The % inhibition of protein farnesyltransferase was determined for representative compounds of the invention.
MEASURED_PROPERTY: % inhibition at 1 × 10^−6 M (%)
Lab book: enter the figure in %, no units written.

Fill in: % inhibition at 1 × 10^−6 M of CSCCC(NC(=O)c1ccc(C=Cc2cccnc2)cc1-c1ccccc1C)C(=O)NS(=O)(=O)c1ccc(C)cc1 (stereo not shown) [Example 277] is ___ 98

Fill in: % inhibition at 1 × 10^−6 M of CSCC[C@H](NC(=O)c1ccc(C=Cc2cccnc2)cc1-c1ccccc1C)C(=O)OCOC(C)=O [Example 295] is ___ 94

Fill in: % inhibition at 1 × 10^−6 M of CSCC[C@H](NC(=O)c1ccc(C=Cc2cccnc2)cc1-c1ccccc1C)C(=O)OCOC(=O)C(C)(C)C [Example 296] is ___ 89

Fill in: % inhibition at 1 × 10^−6 M of CSCC[C@H](NC(=O)c1ccc(NC(=O)c2cnccc2C(F)(F)F)cc1-c1ccccc1C)C(=O)[O-].[Li+] [Example 481] is ___ 95

Fill in: % inhibition at 1 × 10^−6 M of CCNC(=O)CC[C@H](NC(=O)c1ccc(COc2cccnc2)cc1-c1ccccc1C)C(=O)O [Example 315] is ___ 93

Fill in: % inhibition at 1 × 10^−6 M of CNC(=O)CC[C@H](NC(=O)c1ccc(COc2cccnc2)cc1-c1ccccc1C)C(=O)O [Example 314] is ___ 97

Fill in: % inhibition at 1 × 10^−6 M of CSCC[C@H](NC(=O)c1ccc(COc2cccnc2)cc1-c1ccccc1)C(=O)OCc1oc(=O)oc1C [Example 326] is ___ 91

Fill in: % inhibition at 1 × 10^−6 M of CSCC[C@H](NC(=O)c1ccc(CN(C(=O)c2ccccc2)c2cccnc2)cc1-c1ccccc1C)C(=O)O [Example 569] is ___ 91

Fill in: % inhibition at 1 × 10^−6 M of CSCCC(NC(=O)c1ccc(COc2cccnc2)cc1-c1ccccc1)C(=O)NS(=O)(=O)N1CCOCC1 (stereo not shown) [Example 318] is ___ 98
